TEST_DESCRIPTION: Fluidity test (angle of repose)
Type: physicochemical
CONDITIONS: measurement 2
ENDPOINT: angle of repose (°)
Answers are plain numbers, in °.

Field: example entries. Status: answers known.
> print(dat)
                                   compound         endpoint  quantitative.readout
1  C=CC(=O)Nc1cc(N2CCN(CC)C3(CC3)C2)ccc1Nc1cc(N(C)C(=O)Nc2c(Cl)c(OC)cc(OC)c2Cl)ncn1 [Crystal form D]  angle of repose                  36.2
2  C=CC(=O)Nc1cc(N2CCN(CC)C3(CC3)C2)ccc1Nc1cc(N(C)C(=O)Nc2c(Cl)c(OC)cc(OC)c2Cl)ncn1 [Crystal form E]  angle of repose                  36.1
3  C=CC(=O)Nc1cc(N2CCN(CC)C3(CC3)C2)ccc1Nc1cc(N(C)C(=O)Nc2c(Cl)c(OC)cc(OC)c2Cl)ncn1 [Crystal form C]  angle of repose                  35.4
4  C=CC(=O)Nc1cc(N2CCN(CC)C3(CC3)C2)ccc1Nc1cc(N(C)C(=O)Nc2c(Cl)c(OC)cc(OC)c2Cl)ncn1 [Amorphous form]  angle of repose                  42.6

The following compounds each have a reported value; give each one's angle of repose.
1. C=CC(=O)Nc1cc(N2CCN(CC)C3(CC3)C2)ccc1Nc1cc(N(C)C(=O)Nc2c(Cl)c(OC)cc(OC)c2Cl)ncn1 [Crystal form B]
2. C=CC(=O)Nc1cc(N2CCN(CC)C3(CC3)C2)ccc1Nc1cc(N(C)C(=O)Nc2c(Cl)c(OC)cc(OC)c2Cl)ncn1 [Crystal form A]

Output:
1: 35.7; 2: 31.8
